log10(EC50) by entry:
- Tested on: SARS-CoV2
- assaySummary: microbe, parasite or virus in culture
- Assay type: cell-based
- details: Severe acute respiratory syndrome coronavirus 2, 20 h, read-out: EC50 (μM) (mean ± SD)
Values reflect log10 of reported EC50 (µM).

INSERT INTO measurements (compound, reportedproperty, number) VALUES
  ('COc1cc([C@@H]2c3cc4c(cc3[C@@H](O[C@@H]3O[C@@H]5CO[C@@H](c6cccs6)O[C@H]5[C@H](O)[C@H]3O)[C@H]3COC(=O)[C@H]23)OCO4)cc(OC)c1O [Teniposide]', 'log10(EC50)', 1.99),
  ('O=C1[C@@H]2[C@H]3CC[C@H](C3)[C@@H]2C(=O)N1C[C@@H]1CCCC[C@H]1CN1CCN(c2nsc3ccccc23)CC1', 'log10(EC50)', 1.26),
  ('CCc1c2c(nc3ccc(OC(=O)N4CCC(N5CCCCC5)CC4)cc13)-c1cc3c(c(=O)n1C2)COC(=O)[C@]3(O)CC', 'log10(EC50)', 1.93);

Task: Answer with reported log10(EC50) of C[C@@H]1C/C=C/C=C/C=C/C=C/[C@H](O[C@@H]2O[C@H](C)[C@@H](O)[C@H](N)[C@@H]2O)C[C@@H]2O[C@](O)(C[C@@H](O)C[C@H]3O[C@@H]3/C=C/C(=O)O1)C[C@H](O)[C@H]2C(=O)O
Result: 1.39

* * *

- System: SARS-CoV2
- assaySummary: microbe, parasite or virus in culture
- Assay type: cell-based
- details: Severe acute respiratory syndrome coronavirus 2, 20 h, read-out: EC50 (μM) (mean ± SD)
reportedProperty: EC50 (µM)
Write the answer as a number in µM, unit excluded.

Worked examples, 2 compounds total:
INSERT INTO results (compound, number) VALUES
  ('Cc1ccc(C(=O)Nc2ccc(CN3CCN(C)CC3)c(C(F)(F)F)c2)cc1C#Cc1cnc2cccnn12 [Ponatinib]', 1.1),
  ('CC1(C)[C@@H](OC(=O)CCC(=O)O)CC[C@]2(C)[C@H]3C(=O)C=C4[C@@H]5C[C@@](C)(C(=O)O)CC[C@]5(C)CC[C@@]4(C)[C@]3(C)CC[C@@H]12 [Carbenoxolone]', 66);

// below: EC50 requested for another compound
Task: Provide EC50, system SARS-CoV2, entry Cc1ccc(C(=O)Nc2ccc(S(=O)(=O)O)c3cc(S(=O)(=O)O)cc(S(=O)(=O)O)c23)cc1NC(=O)c1cccc(NC(=O)Nc2cccc(C(=O)Nc3cc(C(=O)Nc4ccc(S(=O)(=O)O)c5cc(S(=O)(=O)O)cc(S(=O)(=O)O)c45)ccc3C)c2)c1 [Suramin]
Result: 64

* * *

- Tested on: SARS-CoV2
- assaySummary: microbe, parasite or virus in culture
- Assay type: cell-based
- details: Severe acute respiratory syndrome coronavirus 2, 20 h, read-out: EC50 (μM) (mean ± SD)
EC50 by entry:

Worked examples, 2 compounds total:
INSERT INTO assay_data (compound, targetorsystem, result) VALUES
  ('COC(=O)N[C@H](C(=O)N1CCC[C@H]1c1nc(-c2ccc3c(c2)O[C@@H](c2ccccc2)n2c-3cc3cc(-c4c[nH]c([C@@H]5CCCN5C(=O)[C@@H](NC(=O)OC)C(C)C)n4)ccc32)c[nH]1)C(C)C [Elbasvir]', 'SARS-CoV2', '~23 µM'),
  ('CC1(C)CCC(CN2CCN(c3ccc(C(=O)NS(=O)(=O)c4ccc(NCC5CCOCC5)c([N+](=O)[O-])c4)c(Oc4cnc5[nH]ccc5c4)c3)CC2)=C(c2ccc(Cl)cc2)C1 [Venetoclax]', 'SARS-CoV2', '~6.2 µM');

// below: EC50 requested for another compound
Task: Answer with reported EC50 of COc1ccc2c(O[C@@H]3C[C@H]4C(=O)N[C@]5(C(=O)NS(=O)(=O)C6CC6)C[C@H]5/C=C\CCCCN(C)C(=O)[C@@H]4C3)cc(-c3nc(C(C)C)cs3)nc2c1C [Simeprevir]
Result: ~9.3 µM
